meta.source: the supplement of paper PMC10567573

B1: IQUB (parent)
chain: CRNCINLQNEAQKRESFLKYKCLL

variants of: B1; assay: protein stability index of a GFP-peptide fusion (GPS, HEK-293T) (PSI 1-6); higher = more stable; details: c terminus: a fixed tail appended;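 note: lentivirally expressed fusions sorted by FACS into six bins by GFP to DsRed ratio, PSI derived from sequencing read proportions per bin multiplied by bin number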
# label = TRUE if protein stability index >= 2 else FALSE

Req: Decide: is the reported value of protein stability index for CLNCINLQNEAQKRESFLKYKCLL [R2L] equal to or greater than 2?
Resp: FALSE

Req: Reported protein stability index at or above 2? CRNCINLQNEAQKRESFLKYACLL [K21A]
Resp: FALSE

Req: Please check the record CRNCINLQNEAQKRESFLKQKCLL [Y20Q] and state if its protein stability index is at or above 2.
Resp: TRUE

Req: Could you please find out whether CRNCINLQNEAQKRESFLKYNCLL [K21N] has protein stability index that meets 2 or exceeds it?
Resp: FALSE

Req: Exam item: decide whether the reported protein stability index for CRNCINLQNDAQKRESFLKYKCLL [E10D] is at least 2.
Resp: FALSE

Req: Is reported protein stability index greater than or equal to 2 here: CRNCINLQNEAQKRESFLKYTCLL [K21T]
Resp: FALSE

Req: Decide: is the reported value of protein stability index for CRNCINLQNEAQKRESFLKYKCLS [L24S] equal to or greater than 2?
Resp: TRUE

Req: Test whether the variant CCNCINLQNEAQKRESFLKYKCLL [R2C] records protein stability index of 2 or higher.
Resp: FALSE

Req: For this variant, is measured protein stability index 2 or higher? CRNCINLQNEAQKFESFLKYKCLL [R14F]
Resp: TRUE

Req: Is it the case that CRNCINLQNEAQKRESFIKYKCLL [L18I] has protein stability index reaching or exceeding 2?
Resp: FALSE

Req: Determine whether measured protein stability index meets or exceeds 2 for CRNCINLQNEAQKRESFLKFKCLL [Y20F]
Resp: FALSE

Req: # check: protein stability index of CRNCINEQNEAQKRESFLKYKCLL [L7E] is greater than or equal to 2
Resp: TRUE

Req: Hello, I need to know if CRNCINLQNEAQKRESRLKYKCLL [F17R] has measured protein stability index not below 2. Thanks!
Resp: TRUE

Req: Could you verify whether the entry CRNCINLQNEAQKYESFLKYKCLL [R14Y] shows protein stability index of no less than 2?
Resp: TRUE

Req: Quick check, protein stability index >= 2? CRNCCNLQNEAQKRESFLKYKCLL [I5C]
Resp: FALSE

Req: Does protein stability index meet or surpass 2 for CRNCMNLQNEAQKRESFLKYKCLL [I5M] ?
Resp: FALSE

Req: Is protein stability index for CRNCINLQNEAQKRESFLKYKCLT [L24T] at or above 2?
Resp: FALSE

Req: Would you say CRNCINLQNEAQKRRSFLKYKCLL [E15R] shows protein stability index at minimum 2?
Resp: FALSE

Req: Threshold query (protein stability index >= 2) on CRNCINLQNEAQKRESFLTYKCLL [K19T]
Resp: TRUE

Req: Would you say CRNCISLQNEAQKRESFLKYKCLL [N6S] shows protein stability index at minimum 2?
Resp: TRUE

Req: Kindly determine if protein stability index recorded for CRNCIWLQNEAQKRESFLKYKCLL [N6W] is above or exactly 2.
Resp: FALSE

Req: Would you say GRNCINLQNEAQKRESFLKYKCLL [C1G] shows protein stability index at minimum 2?
Resp: TRUE

Req: Reported protein stability index reaches at least 2 for CRNCINLQNEATKRESFLKYKCLL [Q12T] ?
Resp: FALSE

Req: protein stability index >= 2 for ERNCINLQNEAQKRESFLKYKCLL [C1E] ?
Resp: FALSE

Req: Is protein stability index for CRNCINLQNEAFKRESFLKYKCLL [Q12F] at or above 2?
Resp: TRUE

Req: Record CRNCINLQNEAQLRESFLKYKCLL [K13L] ; criterion: protein stability index no lower than 2. Met?
Resp: TRUE

Req: I'd appreciate it if you could say whether CRNVINLQNEAQKRESFLKYKCLL [C4V] has protein stability index at least equal to 2.
Resp: FALSE

Req: Does CRNCINLQNEAGKRESFLKYKCLL [Q12G] have a reported protein stability index of at least 2?
Resp: FALSE

Req: Check if protein stability index >= 2 (inclusive). Item: CRNCINLQNEAQKRESFLKYLCLL [K21L]
Resp: FALSE

Req: Determine whether measured protein stability index meets or exceeds 2 for CRNCHNLQNEAQKRESFLKYKCLL [I5H]
Resp: FALSE

Req: Threshold query (protein stability index >= 2) on CRNCINLQNEAQKRHSFLKYKCLL [E15H]
Resp: TRUE

Req: Determine whether measured protein stability index meets or exceeds 2 for CRNCINLQNEAQNRESFLKYKCLL [K13N]
Resp: FALSE

Req: Hi team, for CQNCINLQNEAQKRESFLKYKCLL [R2Q] , is the recorded protein stability index at or above 2?
Resp: FALSE

Req: Is protein stability index at least 2? Consider CRFCINLQNEAQKRESFLKYKCLL [N3F]
Resp: FALSE

Req: Tell me whether protein stability index is at least 2 here: CRRCINLQNEAQKRESFLKYKCLL [N3R]
Resp: FALSE

Req: Determine whether this variant has protein stability index no lower than 2: CRNCINLQNENQKRESFLKYKCLL [A11N]
Resp: FALSE

Req: hey, is protein stability index for this one >= 2? CRNCINLQQEAQKRESFLKYKCLL [N9Q]
Resp: FALSE

Req: Quick check: does CRNCINLQNAAQKRESFLKYKCLL [E10A] have protein stability index greater than or equal to 2?
Resp: FALSE

Req: Could you tell me if the measured protein stability index of CRNCINLQNMAQKRESFLKYKCLL [E10M] reaches 2 or more?
Resp: TRUE

Req: Quick check, protein stability index >= 2? CRNCINLQNEAQKIESFLKYKCLL [R14I]
Resp: TRUE

Req: Could you tell me if the measured protein stability index of CRNWINLQNEAQKRESFLKYKCLL [C4W] reaches 2 or more?
Resp: FALSE

Req: Form field: protein stability index at least 2? Entry: CRNCINCQNEAQKRESFLKYKCLL [L7C]
Resp: TRUE

Req: Test whether the variant CRNCINLQDEAQKRESFLKYKCLL [N9D] records protein stability index of 2 or higher.
Resp: TRUE

Req: I'd appreciate it if you could say whether CRNCINLQNEAQKRESELKYKCLL [F17E] has protein stability index at least equal to 2.
Resp: TRUE
